Reported Dmax values for a set of molecules
molecular target: IKZF2 (Homo sapiens, UniProt Q96SW2+Q9UKS7); construct: CRISPR/Cas9—mediated insertion of the HiBiT peptide tag (Promega™) to the N-terminus of the IKZF2 gene locus; endogenous in cells; host or cells: MOLT4 cells, with CRISPR/Cas9 knock-in of HiBiT at the endogenous IKZF2 locus; assay: HiBit-IKZF2 assay (HiBiT-Helios degradation in MOLT4 cells); format: cell-based; details: MOLT-4, extent of degradation from highest to lowest concentration, 10 μM to 0.00026 μM, read-out: Dmax
Sequence (Q9UKS7 whole entry): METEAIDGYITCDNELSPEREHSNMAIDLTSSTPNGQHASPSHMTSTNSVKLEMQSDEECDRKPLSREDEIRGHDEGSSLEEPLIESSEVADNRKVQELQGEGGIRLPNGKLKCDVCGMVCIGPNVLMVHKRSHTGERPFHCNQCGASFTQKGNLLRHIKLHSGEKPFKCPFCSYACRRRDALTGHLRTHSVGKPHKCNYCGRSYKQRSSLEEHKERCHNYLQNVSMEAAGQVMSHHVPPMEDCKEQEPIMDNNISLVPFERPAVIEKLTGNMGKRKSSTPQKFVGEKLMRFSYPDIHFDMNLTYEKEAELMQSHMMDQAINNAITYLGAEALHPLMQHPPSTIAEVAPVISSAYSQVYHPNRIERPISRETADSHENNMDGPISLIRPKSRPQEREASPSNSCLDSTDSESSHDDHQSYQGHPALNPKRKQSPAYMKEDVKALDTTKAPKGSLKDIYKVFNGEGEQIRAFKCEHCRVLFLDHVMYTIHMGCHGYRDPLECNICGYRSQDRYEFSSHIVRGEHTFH
Sequence (Q96SW2 whole entry): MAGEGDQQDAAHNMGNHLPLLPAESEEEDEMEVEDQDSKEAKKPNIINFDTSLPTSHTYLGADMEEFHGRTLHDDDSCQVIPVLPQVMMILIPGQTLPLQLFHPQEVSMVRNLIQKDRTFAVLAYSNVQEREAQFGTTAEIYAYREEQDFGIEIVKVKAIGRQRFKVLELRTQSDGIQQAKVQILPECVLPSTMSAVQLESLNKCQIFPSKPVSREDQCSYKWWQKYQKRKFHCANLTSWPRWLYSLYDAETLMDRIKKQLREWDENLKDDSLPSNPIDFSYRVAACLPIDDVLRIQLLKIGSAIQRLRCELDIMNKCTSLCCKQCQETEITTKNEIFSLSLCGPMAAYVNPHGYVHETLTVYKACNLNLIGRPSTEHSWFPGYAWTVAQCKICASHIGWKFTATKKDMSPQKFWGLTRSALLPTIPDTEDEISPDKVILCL
Sequence (Q16531 whole entry partner): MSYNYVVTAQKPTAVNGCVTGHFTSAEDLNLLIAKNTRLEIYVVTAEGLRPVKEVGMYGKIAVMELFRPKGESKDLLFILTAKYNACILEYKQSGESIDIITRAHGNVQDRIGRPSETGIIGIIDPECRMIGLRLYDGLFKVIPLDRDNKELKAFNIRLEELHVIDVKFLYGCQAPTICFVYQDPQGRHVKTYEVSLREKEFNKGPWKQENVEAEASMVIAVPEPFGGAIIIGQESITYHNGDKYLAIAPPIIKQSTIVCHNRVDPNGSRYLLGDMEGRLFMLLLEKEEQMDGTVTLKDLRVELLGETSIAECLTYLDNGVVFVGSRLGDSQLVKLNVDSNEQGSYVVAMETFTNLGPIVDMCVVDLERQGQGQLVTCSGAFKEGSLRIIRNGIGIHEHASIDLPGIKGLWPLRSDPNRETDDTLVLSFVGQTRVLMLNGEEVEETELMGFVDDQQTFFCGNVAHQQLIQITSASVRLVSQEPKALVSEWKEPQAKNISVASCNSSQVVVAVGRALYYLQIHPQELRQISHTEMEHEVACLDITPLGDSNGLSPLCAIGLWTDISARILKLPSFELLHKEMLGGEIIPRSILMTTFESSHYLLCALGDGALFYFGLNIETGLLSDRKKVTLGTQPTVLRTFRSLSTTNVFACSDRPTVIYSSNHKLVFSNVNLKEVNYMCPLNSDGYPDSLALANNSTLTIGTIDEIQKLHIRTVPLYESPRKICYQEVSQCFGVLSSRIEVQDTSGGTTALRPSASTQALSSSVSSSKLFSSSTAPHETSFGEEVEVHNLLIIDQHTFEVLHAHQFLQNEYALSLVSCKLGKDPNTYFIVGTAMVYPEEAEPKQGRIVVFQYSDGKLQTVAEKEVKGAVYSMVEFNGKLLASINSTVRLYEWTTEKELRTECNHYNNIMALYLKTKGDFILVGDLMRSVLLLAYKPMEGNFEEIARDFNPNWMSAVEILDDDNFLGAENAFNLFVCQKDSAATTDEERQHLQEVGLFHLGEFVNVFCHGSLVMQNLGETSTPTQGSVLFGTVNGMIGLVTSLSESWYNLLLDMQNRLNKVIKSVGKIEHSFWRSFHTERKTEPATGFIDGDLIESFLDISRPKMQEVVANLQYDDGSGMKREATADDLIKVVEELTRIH

>>> df
                                   molecule   measured
0  O=C1CCC(N2Cc3cc(C4(O)CCN(Cc5nc6ccccc6s5)CC4)ccc3C2=O)C(=O)N1 (stereo not drawn) [Compound 260]  50 to 70%
1  O=C1CCC(N2Cc3cc(C4(O)CCN(Cc5cccc6ccccc56)CC4)ccc3C2=O)C(=O)N1 (stereo not drawn) [Compound 204]      > 70%
2  O=C1CCC(N2Cc3cc(C4(O)CCN(Cc5cc(F)cc(F)c5)CC4)ccc3C2=O)C(=O)N1 (stereo not drawn) [Compound 205]      > 70%
3  O=C1CCC(N2Cc3cc(C4(O)CCN(Cc5ccc(OC(F)F)cc5)CC4)ccc3C2=O)C(=O)N1 (stereo not drawn) [Compound 247]      > 70%
4  O=C1CCC(N2Cc3cc(C4CCN(Cc5ccnc(C(=O)Nc6ccccn6)c5)CC4)ccc3C2=O)C(=O)N1 (stereo not drawn) [Compound 130]  50 to 70%

Let us move to another entry and its Dmax.
## Input Hello, please tell me recorded Dmax for this one: O=C1CCC(N2Cc3cc(C4CCN(Cc5cccc(C(=O)Nc6ccccc6)c5)CC4)ccc3C2=O)C(=O)N1 (stereo not drawn) [Compound 86]
## Output 50 to 70%

###

Biological target: IKZF2 (Homo sapiens, UniProt Q96SW2+Q9UKS7)
Construct: CRISPR/Cas9—mediated insertion of the HiBiT peptide tag (Promega™) to the N-terminus of the IKZF2 gene locus; endogenous in cells; host or cells: MOLT4 cells, with CRISPR/Cas9 knock-in of HiBiT at the endogenous IKZF2 locus
Assay: HiBit-IKZF2 assay (HiBiT-Helios degradation in MOLT4 cells)
Type: cell-based
Details: concentration at which 50% of HiBiT-Helios degradation was achieved
Source text: The HiBiT protein tagging system was applied to MOLT4 cells via a CRISPR/Cas9—mediated insertion of the HiBiT peptide tag (Promega™) to the N-terminus of the IKZF2 gene locus (Neon™ Transfection System). […] At the indicated timepoints, the Nano-Glo® HiBiT Lytic Detection System (Promega™) was utilized for detecting bioluminescence of the HiBiT tag in treated cells: abundance of the tag is proportionate to the level of luminescence. […]
Reported DC50 values follow for various compounds

# count of solved cases: 6
>>> print(df.to_string())
                                   compound      measured
0  Cc1cccc(CN2CCC(O)(c3ccc4c(c3)CN(C3CCC(=O)NC3=O)C4=O)CC2)c1 (centres unmarked) [Compound 264]       < 10 nM
1  O=C1CCC(N2Cc3cc(C4CCN(Cc5ccc6c(c5)C(=O)N(c5ccccn5)CCC6)CC4)ccc3C2=O)C(=O)N1 (centres unmarked) [Compound 184]   10 to 30 nM
2  O=C1CCC(N2Cc3cc(C4CCN(Cc5cccc(Nc6ccsn6)c5)CC4)ccc3C2=O)C(=O)N1 (centres unmarked) [Compound 233]   10 to 30 nM
3  O=C1CCC(N2Cc3cc(C4CCN(Cc5cccc(S(=O)(=O)N6CCOc7ccccc76)c5)CC4)ccc3C2=O)C(=O)N1 (centres unmarked) [Compound 84]  30 to 150 nM
4  O=C1CCC(N2Cc3cc(C4CCN(Cc5cnc(Nc6ccccc6)nc5)CC4)ccc3C2=O)C(=O)N1 (centres unmarked) [Compound 139]  30 to 150 nM
5  O=C1CCC(N2Cc3cc(C4CCN(Cc5ccc6c(c5)C(=O)N(c5ccccc5O)C6)CC4)ccc3C2=O)C(=O)N1 (centres unmarked) [Compound 218]   10 to 30 nM

## Input Kindly indicate its recorded DC50. Item: CN(c1ccccc1)S(=O)(=O)c1cccc(CN2CCC(c3ccc4c(c3)CN(C3CCC(=O)NC3=O)C4=O)CC2)c1 (centres unmarked) [Compound 98]
## Output < 10 nM

## Input Report DC50, nothing else, for this compound: O=C1CCC(N2Cc3cc(C4CCN(Cc5cccc(S(=O)(=O)N6CCC7(CC7)C6)c5)CC4)ccc3C2=O)C(=O)N1 (centres unmarked) [Compound 60]
## Output 10 to 30 nM

## Input Please give measured DC50 of the following entry: O=C1CCC(N2Cc3cc(C4CCN(Cc5nccc(Nc6ccccn6)n5)CC4)ccc3C2=O)C(=O)N1 (centres unmarked) [Compound 102]
## Output 10 to 30 nM

## Input Supply DC50 value. Item: O=C1CCC(N2Cc3cc(C4(O)CCN(Cc5cccc(OC(F)F)c5)CC4)ccc3C2=O)C(=O)N1 (centres unmarked) [Compound 208]
## Output < 10 nM

## Input Look up and report measured DC50 for this entry: O=C1CCC(N2Cc3cc(C4(O)CCN(Cc5ccccc5C(F)(F)F)CC4)ccc3C2=O)C(=O)N1 (centres unmarked) [Compound 249]
## Output < 10 nM
